Molecular target: RIPK1 kinase (Homo sapiens)
Construct: purchased Promega VA7593
Sequence (Q13546 1-671): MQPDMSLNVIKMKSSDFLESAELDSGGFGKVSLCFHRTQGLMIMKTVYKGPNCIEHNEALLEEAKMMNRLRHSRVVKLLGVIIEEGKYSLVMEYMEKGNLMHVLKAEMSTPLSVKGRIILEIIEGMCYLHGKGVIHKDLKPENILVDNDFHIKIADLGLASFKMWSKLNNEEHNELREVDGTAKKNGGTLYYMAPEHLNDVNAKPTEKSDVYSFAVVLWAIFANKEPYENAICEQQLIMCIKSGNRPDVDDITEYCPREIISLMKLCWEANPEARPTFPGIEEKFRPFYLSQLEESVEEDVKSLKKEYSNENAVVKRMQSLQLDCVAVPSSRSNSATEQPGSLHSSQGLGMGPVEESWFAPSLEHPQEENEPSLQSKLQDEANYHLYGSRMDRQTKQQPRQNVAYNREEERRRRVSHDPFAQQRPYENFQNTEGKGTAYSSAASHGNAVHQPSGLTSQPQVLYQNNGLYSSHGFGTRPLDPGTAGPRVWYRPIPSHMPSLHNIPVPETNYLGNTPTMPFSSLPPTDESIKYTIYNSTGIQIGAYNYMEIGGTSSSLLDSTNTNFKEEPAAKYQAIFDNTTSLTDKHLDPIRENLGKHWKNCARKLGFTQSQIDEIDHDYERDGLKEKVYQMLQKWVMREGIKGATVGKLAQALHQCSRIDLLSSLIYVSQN
Assay: In vitro RIPK1 kinase activity assay (ADP-Glo), inhibition by compounds at 1 μM
Type: biochemical
Settings: compound 1 μM; ATP 10 μM; MBP substrate 100 μg/mL; read-out: RIPK1 kinase activity inhibition rate range
REPORTED_ENDPOINT: inhibition at 1 µM

// lookup inhibition at 1 µM | system=RIPK1 kinase (Homo sapiens) | key= C[C@@H](NC(=O)C(=O)N[C@H]1COc2ccc(C#CCN3C(=O)CCC3=O)cc2N(C)C1=O)c1ccccc1 ≥ 75%

Moving on to the next compound: CN1C(=O)[C@@H](NC(=O)C(=O)NCCc2ccccc2)COc2ccc(C#Cc3ccsc3)cc21 ≥ 75%

Moving on to the next compound: CN1C(=O)[C@@H](NC(=O)C(=O)NCCc2cccc(F)c2)COc2ccc(C#CCCO)cc21 50 to 74%

Moving on to the next compound: CN1C(=O)[C@@H](NC(=O)C(=O)NCCc2ccccc2)COc2ccc(C#Cc3cncnc3)cc21 ≥ 75%

Moving on to the next compound: CN1C(=O)[C@@H](NC(=O)C(=O)NCc2ccccc2)COc2ccccc21 25 to 49%
